Task for the reader: assign each of the following compounds its reported max activation.
target: Nuclear receptor subfamily 1 group I member 2 (Rattus norvegicus)
method_description: Rat pregnane X receptor (rPXR) activation by small molecules, qHTS assay (AID 1346983); further: on the % scale 0 is the no-effect control and ±100 the full control effect; nearly all actives have a fitted effect of over 20% in size
measurement_context: rPXR luciferase reporter cells, One-Glo luminescence, 24 h; active compounds read high
Records with an inconclusive call do not appear.
Numeric answer only, unit % assumed.

Lab note: "CN1CCCC(=C(c2cccs2)c2cccs2)C1" gave max activation of -1

# max activation (compound: "CC(C)(O)[C@@H]1[C@H]2OC(=O)[C@@H]1[C@]1(O)C[C@H]3O[C@]34C(=O)O[C@H]2[C@]14C" ) is -2.48

The value of max activation measured for the compound "O=C(CCl)c1ccc(Oc2ccc(C(=O)CCl)cc2)cc1" turned out to be 7.38

The recorded max activation for entry CCCCC[C@@H](O)C1C(=O)OC(C)[C@H](O)/C=C/C=C/C=C/C=C/C=C(\C)C(O)C(O)C(O)C[C@H](O)C[C@H](O)C[C@H](O)C[C@H](O)C[C@@H]1O (some centres not stated) equals 0.909

# max activation of "O=C1C=C2C=C[C@@H]3C[C@@]2(O1)[C@H]1CCCCN31" = -20.5

# compound CN1c2ccccc2C(NCCCCCCC(=O)O)c2ccc(Cl)cc2S1(=O)=O (configuration not stated) ; its max activation = -2.51

Entry "C=CCN(C1=NCCN1)c1c(Cl)cccc1Cl" ; max activation = -3.97

max activation in this record for "C[C@]12C=CC(=O)C=C1CC[C@@H]1[C@@H]2CC[C@]2(C)OC(=O)CC[C@@H]12" : -1.12

The value of max activation measured for the compound "CCN(CC)CCO[C@H]1CC[C@@]2(C)C(=CC[C@@H]3[C@@H]2CC[C@]2(C)C(=O)CC[C@@H]32)C1" turned out to be 3.39

So, CC(Cc1ccccc1)NC=O (configuration not stated) ? Its max activation was 0.0916

# max activation of "Clc1ccc2c(c1)C(c1ccccc1)=NCc1nncn1-2" = -10.5

CCCCNCC(O)c1ccc(O)cc1 (configuration not stated) has a reported max activation of -0.163

Reported max activation for C[N+]1(C)[C@@H]2CC[C@H]1CC(OC(=O)c1c[nH]c3ccccc13)C2 (some centres not stated) was -3.92

max activation recorded for this compound, "C[C@]12N[C@H](Cc3ccccc31)c1ccccc12" , is -5.86

Query Cc1cc(C)cc(C(=O)OC2C[C@H]3CC[C@@H](C2)N3C)c1 (some centres not stated) yields max activation of -1.64

Item: COC(COC(N)=O)C1=C(N2CC2)C(=O)C(C)=C(N2CC2)C1=O (configuration not stated) | max activation: -20.2

Reported max activation for "Oc1ccc2c3c1O[C@H]1[C@@H](O)CC[C@@]4(O)[C@@H](C2)N(CC2CCC2)CC[C@]314" was -0.605

Please fill in: max activation reported for "CCCN1CCC[C@H](c2cccc(O)c2)C1" = -2.62

CC(C)NC(C)Cc1ccc(I)cc1 (configuration not stated) has a reported max activation of -3.06

get_value(item= "C[C@]12C[C@H]3S[C@H]3C[C@@H]1CC[C@@H]1[C@@H]2CC[C@]2(C)[C@@H](O)CC[C@@H]12" , readout=max activation) returns 11.2

For "CNC(=O)OCC[N+](C)(C)C" the compound record lists max activation as 0.49

Documented max activation of C#CCN1CC(=O)N(COC(=O)C2C(C=C(C)C)C2(C)C)C1=O (configuration not stated) : 7.13

Each recorded value in this set is attributed to PubChem BioAssay (Tox21).
